# maps each entry to its glycan array binding signal (z-score)
target: Fuc(a1-2)[GalNAc(a1-3)]Gal(b1-3)GalNAc(a1-3)[Fuc(a1-2)]Gal(b1-4)GlcNAc; experiment: glycan array binding signal (z-score within array); higher = stronger binding; details: glycan notation: IUPAC condensed, linker removed
The entries come from a sample that favours the strongest signals as a whole.
Kindly provide the number alone.

QUERY: Consider the binder shown here: Na-CTL-1 (Necator americanus) (protein) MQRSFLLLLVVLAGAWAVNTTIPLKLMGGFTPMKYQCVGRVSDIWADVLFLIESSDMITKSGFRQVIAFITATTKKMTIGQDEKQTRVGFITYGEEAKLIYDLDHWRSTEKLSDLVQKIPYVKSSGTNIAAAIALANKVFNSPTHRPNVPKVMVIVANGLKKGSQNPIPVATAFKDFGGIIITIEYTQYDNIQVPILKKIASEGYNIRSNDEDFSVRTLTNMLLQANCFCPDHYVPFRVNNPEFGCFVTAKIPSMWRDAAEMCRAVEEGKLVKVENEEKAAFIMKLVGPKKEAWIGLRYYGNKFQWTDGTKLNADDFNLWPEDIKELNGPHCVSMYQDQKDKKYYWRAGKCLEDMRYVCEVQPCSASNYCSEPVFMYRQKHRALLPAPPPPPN What is its recorded glycan array binding signal (z-score)?
RESULT: -0.489

QUERY: What value of measured glycan array binding signal (z-score) is listed for Wzz (Escherichia coli) (protein) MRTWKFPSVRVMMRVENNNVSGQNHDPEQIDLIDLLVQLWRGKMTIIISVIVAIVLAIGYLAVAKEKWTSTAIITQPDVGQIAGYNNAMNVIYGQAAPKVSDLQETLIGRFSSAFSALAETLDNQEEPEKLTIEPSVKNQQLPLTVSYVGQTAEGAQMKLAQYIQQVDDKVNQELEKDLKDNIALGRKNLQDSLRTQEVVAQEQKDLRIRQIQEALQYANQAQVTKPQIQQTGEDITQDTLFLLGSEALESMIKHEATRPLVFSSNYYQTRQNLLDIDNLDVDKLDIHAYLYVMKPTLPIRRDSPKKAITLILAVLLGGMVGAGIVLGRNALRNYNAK ?
RESULT: 1.11

QUERY: // returns reported glycan array binding signal (z-score) for input SJCP1084 (Schistosoma japonicum) (protein) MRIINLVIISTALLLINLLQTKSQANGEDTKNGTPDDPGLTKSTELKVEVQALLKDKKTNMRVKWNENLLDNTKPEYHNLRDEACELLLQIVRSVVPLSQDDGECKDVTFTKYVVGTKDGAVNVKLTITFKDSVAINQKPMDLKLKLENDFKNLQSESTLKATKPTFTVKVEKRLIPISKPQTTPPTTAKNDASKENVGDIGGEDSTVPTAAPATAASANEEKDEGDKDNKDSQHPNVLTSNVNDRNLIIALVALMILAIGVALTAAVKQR
RESULT: -0.717

QUERY: Suppose we examine the binder LecB LY19 (Pseudomonas aeruginosa) (protein) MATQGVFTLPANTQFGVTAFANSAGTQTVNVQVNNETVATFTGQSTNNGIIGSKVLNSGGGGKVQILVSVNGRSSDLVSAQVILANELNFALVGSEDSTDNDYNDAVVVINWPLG ; what glycan array binding signal (z-score) value has been reported?
RESULT: -0.497

QUERY: If you can, please state the reported glycan array binding signal (z-score) value of PfulAvr4 (Pseudocercospora fuligena) (protein) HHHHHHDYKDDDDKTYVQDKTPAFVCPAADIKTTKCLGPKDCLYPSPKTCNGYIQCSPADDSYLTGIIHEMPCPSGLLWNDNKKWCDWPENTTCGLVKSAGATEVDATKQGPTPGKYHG .
RESULT: 1.31

QUERY: # lookup: glycan array binding signal (z-score) of PfulAvr4 2 (Pseudocercospora fuligena) (protein) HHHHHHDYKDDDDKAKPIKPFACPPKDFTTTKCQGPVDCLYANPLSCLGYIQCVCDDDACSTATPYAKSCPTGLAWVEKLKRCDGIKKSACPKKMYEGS
RESULT: 3.28
